Test: Study A: single oral dose pharmacokinetics in healthy subjects
Format: in vivo, human
Settings: human, plasma, po, 800 mg, single oral dose 800 mg, fasted, mean ± SD; read-out: AUC0-t
endpointLabel: AUC(0-t) (ng·h/mL)
Give bare numbers, in ng·h/mL.

In: Return value of AUC(0-t) for input COc1ccccc1[C@H](Cn1c(=O)n(C(C)(C)C(=O)O)c(=O)c2c(C)c(-c3ncco3)sc21)OC1CCOCC1 [Compound 1] , no commentary.
Out: 6420

----------
Listed here: compounds with reported IC50 for ACC1 (Homo sapiens).
Numbers only, in nM.

In: Return value of IC50 for input COc1ccccc1[C@H](Cn1c(=O)n(C(C)(C)C(=O)OC2OC(C(=O)O)C(O)C(O)C2O)c(=O)c2c(C)c(-c3ncco3)sc21)OC1CCOCC1 (some centres unmarked) [M+glucuronide conjugate] , no commentary.
Out: 5

Please examine the following record next.
In: Return value of IC50 for input Cc1c(-c2ncco2)sc2c1c(=O)n(C(C)(C)C(=O)O)c(=O)n2C[C@H](OC1CCOCC1)c1ccccc1O [M-CH3 metabolite] , no commentary.
Out: 22

----------
Experiment: Study B: multiple oral dose pharmacokinetics, 10 days
Format: in vivo, human
Conditions: human, in vivo, oral, 100 mg, 100 mg BID, Day 1; value available for one subject
endpointLabel: AUC(0-inf) (ng·h/mL)
Answers are plain numbers, in ng·h/mL.

In: Return value of AUC(0-inf) for input `COc1ccccc1[C@H](Cn1c(=O)n(C(C)(C)C(=O)O)c(=O)c2c(C)c(-c3ncco3)sc21)OC1CCOCC1` , no commentary.
Out: 671

----------
Experiment: Study B: multiple oral dose pharmacokinetics, 10 days
Format: in vivo, human
Settings: human, in vivo, oral, 150 mg, 150 mg QD, Day 1; read-out: AUC0-t
endpointLabel: AUC(0-t) (ng·h/mL)
Give bare numbers, in ng·h/mL.

In: Return value of AUC(0-t) for input `COc1ccccc1[C@H](Cn1c(=O)n(C(C)(C)C(=O)O)c(=O)c2c(C)c(-c3ncco3)sc21)OC1CCOCC1` , no commentary.
Out: 572

----------
Assay: Study B: multiple oral dose pharmacokinetics, 10 days
Assay type: in vivo, human
Conditions: human, in vivo, oral, 200 mg, 200 mg QD, Day 10; read-out: AUC0-t
endpointLabel: AUC(0-t) (ng·h/mL)
Give bare numbers, in ng·h/mL.

In: Return value of AUC(0-t) for input `COc1ccccc1[C@H](Cn1c(=O)n(C(C)(C)C(=O)O)c(=O)c2c(C)c(-c3ncco3)sc21)OC1CCOCC1` , no commentary.
Out: 2050

----------
Test: Study B: multiple oral dose pharmacokinetics, 10 days
Format: in vivo, human
Conditions: human, in vivo, oral, 100 mg, 100 mg QD, Day 10
endpointLabel: half-life (h)
One number for each entry, in h.

In: Return value of half-life for input `COc1ccccc1[C@H](Cn1c(=O)n(C(C)(C)C(=O)O)c(=O)c2c(C)c(-c3ncco3)sc21)OC1CCOCC1` , no commentary.
Out: 7.9

----------
Test: Study B: multiple oral dose pharmacokinetics, 10 days
Type: in vivo, human
Conditions: human, in vivo, oral, 50 mg, 50 mg BID, Day 1; read-out: AUC0-t
endpointLabel: AUC(0-t)
# answer = value followed by unit

In: Return value of AUC(0-t) for input COc1ccccc1[C@H](Cn1c(=O)n(C(C)(C)C(=O)O)c(=O)c2c(C)c(-c3ncco3)sc21)OC1CCOCC1 [Compound 1] , no commentary.
Out: 143 ng·h/mL
